Form field: IC50 (one value per entry).
# Tested system: human DGAT1 (Homo sapiens)
# Construct: membrane fraction
# Assay protocol: Human enzyme assay, further developed assay (14C oleoyl CoA, 96 well plate)
# Applied conditions: human DGAT1 expressed in insect cell (sf9) membranes
# Experimental: The in vitro assay to identify DGAT1 inhibitors uses human DGAT1 expressed in insect cell membranes as the enzyme source (Proc. Natl. Acad. Sci. 1998, 95, 13018-13023). […] In a further developed assay, DGAT1 activity was assayed by a modification of the method described by Coleman (Methods in Enzymology 1992, 209, 98-102). […] DGAT1 activity was quantified by counting aliquots of the upper heptane layer by liquid scintillography.

Answered cases to consult:
{"columns": ["Smiles repr", "Tested system", "Endpoint value"],
 "data": [
  ["O=C(Nc1ccc(O[C@H]2CC[C@H](C(=O)O)CC2)nc1)c1nnc(Nc2cc(F)c(F)cc2F)o1", "human DGAT1 (Homo sapiens)", "36 nM"],
  ["O=C(Nc1ccc(O[C@H]2CC[C@H](C(=O)O)CC2)nc1)c1nnc(Nc2cc(C(F)(F)F)c(F)cc2F)o1", "human DGAT1 (Homo sapiens)", "87 nM"],
  ["O=C(Nc1ccc(O[C@H]2CC[C@@H](C(=O)O)CC2)nc1)c1nnc(Nc2ccc(F)c(Cl)c2)o1", "human DGAT1 (Homo sapiens)", "3.8 nM"]
]}

Dear colleague, please send me the reported IC50 for `O=C(O)C[C@H]1CC[C@@H](Oc2ccc(NC(=O)c3nnc(Nc4ccc(F)c(Cl)c4)o3)cn2)CC1` when you can.
3.1 nM

Dear colleague, please send me the reported IC50 for `O=C(Nc1ccc(O[C@H]2CC[C@H](C(=O)O)CC2)nc1)c1nnc(Nc2ccc(OC(F)(F)F)cc2)o1` when you can.
52 nM

----------
# Tested system: human DGAT1 (Homo sapiens, UniProt O75907)
# Construct: made in house; host or cells: Sf9 insect cells (recombinant baculovirus); membrane fraction
# Sequence (O75907 whole entry): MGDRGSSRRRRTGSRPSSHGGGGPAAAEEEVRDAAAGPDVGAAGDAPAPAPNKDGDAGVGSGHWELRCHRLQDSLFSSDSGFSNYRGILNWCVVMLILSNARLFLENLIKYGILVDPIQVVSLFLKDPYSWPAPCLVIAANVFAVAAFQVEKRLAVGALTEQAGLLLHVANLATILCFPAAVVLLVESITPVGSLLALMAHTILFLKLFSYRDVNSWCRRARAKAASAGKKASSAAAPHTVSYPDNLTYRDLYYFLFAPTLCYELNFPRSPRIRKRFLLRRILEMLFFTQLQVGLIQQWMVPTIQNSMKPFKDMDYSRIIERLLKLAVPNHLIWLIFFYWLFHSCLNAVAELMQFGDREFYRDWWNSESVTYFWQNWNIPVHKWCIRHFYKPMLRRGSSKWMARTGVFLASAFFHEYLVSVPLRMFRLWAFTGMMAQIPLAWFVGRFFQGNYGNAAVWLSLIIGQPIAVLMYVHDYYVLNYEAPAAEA
# Assay protocol: Human enzyme assay, further developed assay (14C oleoyl CoA, 96 well plate)
# Format: biochemical
# Applied conditions: human DGAT1 expressed in insect cell (sf9) membranes
Form field: log10 of IC50 (one value per entry).
A difference of one corresponds to tenfold IC50; all values are log10 with IC50 in µM.

{"columns": ["Compound", "Attribute measured", "Endpoint value"],
 "data": [
  ["COC[C@]1(C(=O)O)CC[C@H](Oc2ccc(NC(=O)c3nnc(Nc4ccc(F)c(F)c4)o3)cn2)CC1 [Example 4]", "log10 of IC50", -1.82]
]}

Dear colleague, please send me the reported log10 of IC50 for COc1nc(O[C@H]2CC[C@@H](C(=O)O)CC2)ccc1NC(=O)c1nnc(Nc2ccc(F)c(Cl)c2)o1 [Example 52] when you can.
-1.64

----------
Form field: pIC50 (one value per entry).
# Tested system: human DGAT1 (Homo sapiens, UniProt O75907)
# Construct: membrane fraction
# Assay protocol: Human enzyme assay, further developed assay (14C oleoyl CoA, 96 well plate)
# Applied conditions: human DGAT1 expressed in insect cell (sf9) membranes
The quantity pIC50 is defined as the negative base-10 logarithm of the molar concentration.

Answered cases to consult:
{"columns": ["Smiles repr", "Endpoint value"],
 "data": [
  ["O=C(Nc1cnc(O[C@H]2CC[C@@H](C(=O)O)CC2)cc1F)c1nnc(Nc2cc(F)c(F)cc2F)o1", 8.21],
  ["Cc1ccc(Nc2nnc(C(=O)Nc3ccc(O[C@H]4CC[C@H](C(=O)O)CC4)nc3)o2)cc1Cl", 7.89],
  ["O=C(Nc1cnc(O[C@H]2CC[C@@H](C(=O)O)CC2)c(Cl)c1)c1nnc(Nc2ccc(Cl)cc2Cl)o1", 7.66],
  ["O=C(Nc1ccc(O[C@H]2C[C@H](C(=O)O)C2)nc1)c1nnc(Nc2ccc(F)c(F)c2)o1", 8.68],
  ["O=C(Nc1ccc(O[C@H]2CC[C@H](C(=O)O)CC2)nc1)c1nnc(Nc2ccc(F)c(C(F)(F)F)c2)o1", 7.60]
]}

Dear colleague, please send me the reported pIC50 for `O=C(O)C[C@H]1CC[C@H](Oc2ccc(NC(=O)c3nnc(Nc4ccc(F)c(F)c4)o3)cn2)CC1` when you can.
7.74

Dear colleague, please send me the reported pIC50 for `COc1cc(O[C@H]2CC[C@@H](C(=O)O)CC2)ncc1NC(=O)c1nnc(Nc2ccc(F)c(F)c2)o1` when you can.
7.30
